Cited source: patent US20240360227A1

# koff listing for each entry below
# targetSystem: Recombinant human his-tagged IGF R extracellular domain protein (human) (UniProt P08069)
# testDetails: SPR, Ab captured via anti-huIgG Fc, pH 7.4

binder: VRDN-02038 (antibody, V domains shown) VH: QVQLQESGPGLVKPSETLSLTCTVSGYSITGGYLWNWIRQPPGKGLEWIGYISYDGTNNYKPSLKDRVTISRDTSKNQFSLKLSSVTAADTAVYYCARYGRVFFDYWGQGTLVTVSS VL: DIVMTQSPLSLPVTPGEPASISCRSSQSIVHSNHNTYLQWYLQKPGQSPQLLIYKVSNRLYGVPDRFSGSGSGTDFTLKISRVEAEDVGVYYCFQGSHVPWTFGQGTKVEIK
unitAbbrev: s⁻¹
koff: 5.36e-05

binder: VRDN-02032 (antibody, V domains shown) VH: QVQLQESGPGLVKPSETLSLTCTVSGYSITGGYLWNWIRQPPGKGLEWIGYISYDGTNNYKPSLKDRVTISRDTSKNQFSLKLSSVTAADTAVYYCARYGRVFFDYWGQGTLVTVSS VL: DIVMTQSPLSLPVTPGEPASISCRSSHSIVHSNGNTYLQWYLQKPGQSPQLLIYKVSNRLYGVPDRFSGSGSGTDFTLKISRVEAEDVGVYYCFQGSHVPWTFGQGTKVEIK
unitAbbrev: s⁻¹
koff: 7.16e-05

binder: VRDN-02018 (antibody, V domains shown) VH: QVQLQESGPGLVKPSETLSLTCTVSGYSITGGYLWNWIRQPPGKGLEWIGYISYDGHNNYKPSLKDRVTISRDTSKNQFSLKLSSVTAADTAVYYCARYGRVFFDYWGQGTLVTVSS VL: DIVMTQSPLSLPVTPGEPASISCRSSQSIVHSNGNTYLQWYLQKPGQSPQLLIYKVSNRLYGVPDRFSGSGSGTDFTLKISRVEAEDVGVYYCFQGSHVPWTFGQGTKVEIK
unitAbbrev: s⁻¹
koff: 7.79e-05

binder: VRDN-02049 (antibody, V domains shown) VH: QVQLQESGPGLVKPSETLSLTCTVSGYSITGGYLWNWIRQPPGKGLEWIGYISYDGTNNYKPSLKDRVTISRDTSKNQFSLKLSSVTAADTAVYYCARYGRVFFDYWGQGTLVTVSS VL: DIVMTQSPLSLPVTPGEPASISCRSSQSIVHSNGNTYLQWYLQKPGQSPQLLIYKVSNRHYGVPDRFSGSGSGTDFTLKISRVEAEDVGVYYCFQGSHVPWTFGQGTKVEIK
unitAbbrev: s⁻¹
koff: 7.92e-05

binder: VRDN-02019 (antibody, V domains shown) VH: QVQLQESGPGLVKPSETLSLTCTVSGYSITGGYLWNWIRQPPGKGLEWIGYISYDGTHNYKPSLKDRVTISRDTSKNQFSLKLSSVTAADTAVYYCARYGRVFFDYWGQGTLVTVSS VL: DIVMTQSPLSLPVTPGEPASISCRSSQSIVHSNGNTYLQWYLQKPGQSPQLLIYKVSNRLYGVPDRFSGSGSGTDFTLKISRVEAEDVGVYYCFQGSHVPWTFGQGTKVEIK
unitAbbrev: s⁻¹
koff: 5.53e-05

binder: VRDN-02062 (antibody, V domains shown) VH: QVQLQESGPGLVKPSETLSLTCTVSGYSITGGYLWNWIRQPPGKGLEWIGYIHYDGTNNYKPSLKDRVTISRDTSKNQFSLKLSSVTAADTAVYYCARYGRVFFDYWGQGTLVTVSS VL: DIVMTQSPLSLPVTPGEPASISCRSSQSIVHSNGNTYLQWYLQKPGQSPQLLIYKVSNRLYGVPDRFSGSGSGTDFTLKISRVEAEDVGVYYCFHGSHVPWTFGQGTKVEIK
unitAbbrev: s⁻¹
koff: 2.13e-05

binder: VRDN-02061 (antibody, V domains shown) VH: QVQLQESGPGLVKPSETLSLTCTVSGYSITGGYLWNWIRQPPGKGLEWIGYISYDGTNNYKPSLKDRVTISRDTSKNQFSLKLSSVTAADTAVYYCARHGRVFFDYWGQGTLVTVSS VL: DIVMTQSPLSLPVTPGEPASISCRSHQSIVHSNGNTYLQWYLQKPGQSPQLLIYKVSNRLYGVPDRFSGSGSGTDFTLKISRVEAEDVGVYYCFQGSHVPWTFGQGTKVEIK
unitAbbrev: s⁻¹
koff: 2.65e-05

binder: VRDN-02011 (antibody, V domains shown) VH: QVQLQESGPGLVKPSETLSLTCTVSGYSITGGYLWHWIRQPPGKGLEWIGYISYDGTNNYKPSLKDRVTISRDTSKNQFSLKLSSVTAADTAVYYCARYGRVFFDYWGQGTLVTVSS VL: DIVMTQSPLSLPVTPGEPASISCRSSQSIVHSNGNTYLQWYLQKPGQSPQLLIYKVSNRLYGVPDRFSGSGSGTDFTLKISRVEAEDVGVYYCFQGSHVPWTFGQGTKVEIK
unitAbbrev: s⁻¹
koff: 4.55e-05

binder: VRDN-02024 (antibody, V domains shown) VH: QVQLQESGPGLVKPSETLSLTCTVSGYSITGGYLWNWIRQPPGKGLEWIGYISYDGTNNYKPSLKDRVTISRDTSKNQFSLKLSSVTAADTAVYYCARYGRHFFDYWGQGTLVTVSS VL: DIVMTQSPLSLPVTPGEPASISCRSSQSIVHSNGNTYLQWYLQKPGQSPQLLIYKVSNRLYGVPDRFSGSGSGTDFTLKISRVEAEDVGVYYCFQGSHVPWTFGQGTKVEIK
unitAbbrev: s⁻¹
koff: 5.06e-05
